Protein target, amino acids: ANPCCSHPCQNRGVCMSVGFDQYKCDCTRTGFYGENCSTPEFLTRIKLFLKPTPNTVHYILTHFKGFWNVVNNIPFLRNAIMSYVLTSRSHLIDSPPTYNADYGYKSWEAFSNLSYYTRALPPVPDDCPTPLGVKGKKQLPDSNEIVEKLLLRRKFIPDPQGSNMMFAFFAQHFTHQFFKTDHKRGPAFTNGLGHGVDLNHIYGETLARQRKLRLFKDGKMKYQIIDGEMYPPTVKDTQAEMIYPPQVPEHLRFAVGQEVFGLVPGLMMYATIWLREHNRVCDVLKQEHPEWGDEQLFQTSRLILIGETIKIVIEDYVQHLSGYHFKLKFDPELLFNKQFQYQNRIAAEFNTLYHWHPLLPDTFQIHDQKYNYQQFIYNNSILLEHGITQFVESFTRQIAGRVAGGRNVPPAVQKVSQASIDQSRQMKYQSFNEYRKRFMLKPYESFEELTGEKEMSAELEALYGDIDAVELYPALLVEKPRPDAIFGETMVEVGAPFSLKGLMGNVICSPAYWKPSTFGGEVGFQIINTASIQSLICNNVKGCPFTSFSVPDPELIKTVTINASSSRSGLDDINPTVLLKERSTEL
Value kind: pIC50
Lab note — pIC50 values are minus log10 of concentrations in M.

The compound identified as CCCCCCCCCCCCCCCC(=O)NCCO [PEA, palmitoylethanolamide] registered its pIC50 at 6.24
